B1: VENTX (parent)
chain: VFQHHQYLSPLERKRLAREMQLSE

Variants of: B1
Assay: protein stability index of a GFP-peptide fusion (GPS, HEK-293T) (PSI 1-6); higher = more stable;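 note: lentivirally expressed fusions sorted by FACS into six bins by GFP to DsRed ratio, PSI derived from sequencing read proportions per bin multiplied by bin number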
Conditions: c terminus: a fixed tail appended
For each of the variants below, state its protein stability index.
In your answer, state the number alone without any accompanying words.

Lookup: Output measured protein stability index for this item: VFQHHQYLSPLERKRLARYMQLSE [E19Y]
Found: 1.91

Lookup: Output measured protein stability index for this item: VFQHHQYLSNLERKRLAREMQLSE [P10N]
Found: 2.82

Lookup: Output measured protein stability index for this item: VFQHWQYLSPLERKRLAREMQLSE [H5W]
Found: 1.96
